Values from PubChem BioAssay AID651724

Please go through the items and note down their activity change.
- Test system: CtBP / adenovirus E1A interaction (AlphaScreen)
- procedure_summary: qHTS Assay for Inhibitors of the CtBP/E1A Interaction; note: % is set by controls: 0 for no effect and ±100 for the full control effect
- condition_details: AlphaScreen GST-E1A/His-CtBP binding, 1536-well; active compounds read low
About 1,700 (0.5%) of roughly 340,000 compounds were called active. About 2% were inconclusive and are not listed. The sample as a whole holds a higher share of actives than the screen did.
API: value field is a number in %; no unit string.

Entry under review: O=Cc1cn(CCOc2ccc(F)cc2)c2ccccc12 . Reported activity change?
0

Returns the measured activity change for the input compound. Input: CN(C(=O)CN1CCN(c2cc(-c3ccc(OCc4ccccc4)cc3)ncn2)CC1)c1ccccc1
0.325

Sample O=C(COc1ccc(Cl)cc1Cl)N/N=C/c1ccccn1 — what was its activity change?
-13

Given O=C(Nc1ccccc1)/C(=C\c1ccco1)NC(=O)c1ccco1 , state its recorded activity change.
0.317

Reported activity change for O=C1c2ccccc2C(=O)N1CCCCCCN1C(=O)c2ccccc2C1=O : what is it?
6.03

Requested field: activity change. Item: CC1(C(=O)NS(=O)(=O)c2ccc(Cl)cc2)CCN1C(=O)CC1CCCC1 (stereo not given)
2.24

May I ask what activity change has been recorded for O=C1c2ccccc2C(=O)c2c1cccc2N1CCN(Cc2ccccc2)CC1 ?
-94.4

If you can, please state the reported activity change value of COc1c(O)ccc2c1CN1CCc3cc4c(cc3C1C2)OCO4 (stereo not given) .
-66.6

Need activity change of Cc1ncc(CO)c(/C=N/NC(=O)c2cccc(S(=O)(=O)N3CCCC3)c2)c1O , thanks.
0

What does the data say about its activity change? Entry: CC(=O)Nc1cc(-c2cccc(CO)c2)cn2c(-c3cccc(C(F)(F)F)c3)cnc12
3.79

Dear colleague, I am looking for the recorded activity change of the following compound: Cc1onc(-c2ccccc2)c1-c1nnc(COC(=O)c2ccc(N(C)C)cc2)o1
2.13

Query (compound): C=CCOCCN(C)C1=NS(=O)(=O)c2ccccc21 ; field requested: activity change
0.314

Requested field: activity change. Item: Oc1ccc2ccccc2c1N=Nc1nccs1
-93.9

So what's the measured activity change for this one? Cc1ccc(S(=O)(=O)N2CCC(N3CCCCCC3)CC2)cc1
-10.9

Quick check: activity change of O=S1(=O)CCN(Cc2ccccc2)CC1 ?
7.73

Need activity change, item C=CCC[C@@H](CCCCC)OC(=O)/C=C/[C@@H](O)[C@H](O)C[C@H](O)CC=C
-9.7

For the compound shown here, COc1ccccc1CNc1nc(Nc2ccccc2Cl)c2sccc2n1 , give the reported activity change.
-5.37

Query: activity change; subject: CCOC(=O)N1CCN(C(c2ccnc3ccccc23)c2nnnn2-c2c(C)cccc2C)CC1 (stereo not given)
0

What activity change value was documented for this compound, CCc1nc2c(OCc3ccc(C(=O)OC)cc3)cccn2c1N(C)C(=O)C(C)C ?
0.85

GET /values?readout=activity change&item= COc1cccc(/C=N/NC(=O)c2[nH]nc3c2CCc2ccccc2-3)c1O
-67.1

Look up activity change for this compound: COc1ccc(C(C)(C)C)cc1NC(=O)CN(C)C1=NS(=O)(=O)c2ccccc21
2.94

Can you share its activity change? I mean this compound: CC(C)n1ncc2c(C(=O)N3CCN(Cc4cccs4)CC3)cc(C3CC3)nc21
-9.59

Could you share which activity change value was measured for CCCNC(=O)C1(C)CCN(Cc2csc(-c3ccc(Cl)cc3)n2)C1 (stereo not given) ?
-2.56

Look up activity change for this compound: CCOC(=O)N1CCN(C(=O)CSc2nc(=O)n3cccc(C)c3n2)CC1
-4.84

Record request: activity change value, item CC1CCCC(NC(=O)COC(=O)c2ccccc2C(=O)N(C)C2CCCCC2)C1C (stereo not given)
-2.61
